# PROCEDURE_DETAILS: Solubility in water and PBS (saturation, UV-spectroscopy)
# Format: physicochemical
# ASSAY_SETUP: thermodynamic from solid; water, 37° C., minimum 72 h; read-out: solubility in water

{"MOL_SMILES": "CN1C(=S)N(C2CCCCC2)C(=O)C1=Cc1ccc(O)cc1O", "solubility / µg/mL": 11}

###

# PROCEDURE_DETAILS: Solubility in water and PBS (saturation, UV-spectroscopy)
# Assay type: physicochemical
# ASSAY_SETUP: aqueous buffer, thermodynamic from solid; PBS, 37° C., minimum 72 h; read-out: solubility in PBS
MEASURED_PROPERTY: solubility (µg/mL)

{"MOL_SMILES": "CN1C(=S)N(C2CCCCC2)C(=O)C1=Cc1ccc(O)cc1O", "RECORDED_MEASUREMENT": 8}
